# System: Escherichia coli
# Procedure Summary: Antibacterial activity against Escherichia coli ATCC 25922 assessed as bacterial growth inhibition incubated for 20 hrs by broth microdilution method
# Assay type: functional
Positions of bridges follow the written chain, without caps; N, C: chain ends. Non-standard residues stand in square brackets, D forms with d. Residues, ends and D or L forms follow the SMILES beside them. *: point of attachment. dAoc(2) = CCCCCC[C@@H](N)C(=O)O; Octanoyl = CCCCCCCC(=O)*; Dab = NCC[C@H](N)C(=O)O
Test Readout: MIC (µg/mL)
Field format: number, assumed µg/mL, no unit text.

Prompt: Which measured MIC belongs to CCCCCCCC(=O)N[C@@H](CCN)C(=O)N[C@H](C(=O)N[C@@H](CCN)C(=O)N[C@H]1CCNC(=O)[C@H]([C@@H](C)O)NC(=O)[C@H](CCN)NC(=O)[C@H](CCN)NC(=O)[C@H](Cc2ccccc2)NC(=O)[C@@H](CCCCCC)NC(=O)[C@H](CCN)NC1=O)[C@@H](C)O (Octanoyl-[Dab]T[Dab][Dab][Dab][dAoc(2)]F[Dab][Dab]T; lactam 4-C) , tested on Escherichia coli?
Response: 0.25

---

# Test system: Klebsiella pneumoniae
# Procedure Summary: Antimicrobial activity against Klebsiella pneumoniae ATCC 13883 assessed as bacterial growth inhibition incubated for 20 hrs by broth microdilution method
# Assay type: functional
Positions of bridges follow the written chain, without caps; N, C: chain ends. Non-standard residues stand in square brackets, D forms with d. Residues, ends and D or L forms follow the SMILES beside them. *: point of attachment. Phe(2-F) = N[C@@H](Cc1ccccc1F)C(=O)O; hLeu = CC(C)CC[C@H](N)C(=O)O; Octanoyl = CCCCCCCC(=O)*; Dab = NCC[C@H](N)C(=O)O
Test Readout: MIC (µg/mL)
Field format: number, assumed µg/mL, no unit text.

Compound	Readout Units	MIC
CCCCCCCC(=O)N[C@@H](CCN)C(=O)N[C@H](C(=O)N[C@@H](CCN)C(=O)N[C@H]1CCNC(=O)[C@H]([C@@H](C)O)NC(=O)[C@H](CCN)NC(=O)[C@H](CCN)NC(=O)[C@H](CCC(C)C)NC(=O)[C@@H](Cc2ccccc2)NC(=O)[C@H](CCN)NC1=O)[C@@H](C)O (Octanoyl-[Dab]T[Dab][Dab][Dab][dF][hLeu][Dab][Dab]T; lactam 4-C)	µg/mL	0.25

Could you now consider this next compound?
Prompt: What does the data say about its MIC? Entry: CCCCCCCC(=O)N[C@@H](CCN)C(=O)N[C@H](C(=O)N[C@@H](CCN)C(=O)N[C@H]1CCNC(=O)[C@H]([C@@H](C)O)NC(=O)[C@H](CCN)NC(=O)[C@H](CCN)NC(=O)[C@H](Cc2ccccc2F)NC(=O)[C@@H](CC(C)C)NC(=O)[C@H](CCN)NC1=O)[C@@H](C)O (Octanoyl-[Dab]T[Dab][Dab][Dab][dL][Phe(2-F)][Dab][Dab]T; lactam 4-C)
Response: 4

---

# Test system: Escherichia coli
# Procedure Summary: Antimicrobial activity against […] Escherichia coli harboring mcr-1 assessed as bacterial growth inhibition incubated for 20 hrs by broth microdilution method
# Assay type: functional
Test Readout: MIC (µg/mL)
Field format: number, assumed µg/mL, no unit text.

CCCCCCCC(=O)N[C@@H](CCN)C(=O)N[C@H](C(=O)N[C@@H](CCN)C(=O)N[C@H]1CCNC(=O)[C@H]([C@@H](C)O)NC(=O)[C@H](CCN)NC(=O)[C@H](CCN)NC(=O)[C@H](CCCCCC)NC(=O)[C@@H](Cc2ccccc2)NC(=O)[C@H](CCN)NC1=O)[C@@H](C)O 0.5

Prompt: What does the data say about its MIC? Entry: `CCCCCCCC(=O)N[C@@H](CCN)C(=O)N[C@H](C(=O)N[C@@H](CCN)C(=O)N[C@H]1CCNC(=O)[C@H]([C@@H](C)O)NC(=O)[C@H](CCN)NC(=O)[C@H](CCN)NC(=O)[C@H](CC(C)C)NC(=O)[C@@H](Cc2ccc(Br)cc2)NC(=O)[C@H](CCN)NC1=O)[C@@H](C)O`
Response: 1
